Numbers sourced from PubChem BioAssay (NCI).

experiment: NCI Yeast Anticancer Drug Screen. Data for the sgs1 mgt1 strain (AID 161);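 further: 0% = growth of cultures given vehicle only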; conditions: S. cerevisiae sgs1 mgt1 strain, at 50.0 µM
Compounds without any hit were thinned out: in the full panel of roughly 79,000, 15% have a hit. The source made the active and inactive calls. No stated cut-off is given here; in the data, active means growth inhibition above about 70%; inactive means the rest.
Classes used: True (active), False (inactive)

compound="CN(C)CCC1(C2=CCCC2)CC/C(=C\\c2ccccc2Cl)C1=O (configuration not stated)" label_class=False
compound=CNc1ccc2c(c1)c1ccccc1n2C label_class=False
compound="CCCCCCC(O)C(CO)CCCCC (configuration not stated)" label_class=False
compound=O=C(Cl)c1cc(-c2ccc(Cl)cc2)nc2c(Cl)cccc12 label_class=True
compound="CCN(CC)CCCC(Nc1c2ccc(Cl)cc2nc2ccc(OC)cc12)c1cccs1 (configuration not stated)" label_class=False
compound=CCOC(=O)c1c(I)[nH]c(I)c1C label_class=False
compound=CCN(CC)CCOC(=O)c1ccc(N=Nc2cc(Cl)c(C)cc2O)cc1 label_class=True
compound=CCN(CC)Cc1c(-c2ccccc2)oc(-c2ccccc2)c1CN(CC)CC label_class=False
compound=CCOC(=O)/C=C(\C)Sc1cc(O)c2ccccc2c1O label_class=True
compound=Cc1c2ccnc(C(N)=O)c2c(C)c2c1[nH]c1ccccc12 label_class=False
compound="OC(Cc1ccccc1)(c1ccccc1)C(O)(Cc1ccccc1)c1ccccc1 (configuration not stated)" label_class=True
compound=Cc1cc(C)nc(/C=C/c2ccc(/C=C/c3cc(C)cc(C)n3)cc2)c1 label_class=False

###

Each entry below lists one item and its recorded growth inhibition value.
assay: NCI Yeast Anticancer Drug Screen. Data for the sgs1 mgt1 strain (AID 161);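 further: 0% = growth of cultures given vehicle only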; conditions: S. cerevisiae sgs1 mgt1 strain, at 50.0 µM, active compounds read high
This is part of a sample that, as a whole, favours compounds with a hit. Of some 79,000 tested, about 15% had one in any assay.
quantity-measured: growth inhibition (%)

structure_string=Cc1cc(Cl)ccc1OCC(=O)Oc1c(Cl)c(Cl)c(Cl)c(Cl)c1Cl quantity_measured="growth inhibition" readout_number=67.6
structure_string=CCN(CC)CCOc1ccc(/C=C(\C#N)c2ccc(OC)cc2)cc1 quantity_measured="growth inhibition" readout_number=85.9
structure_string=COc1nc(Nc2ccc(/C=C/c3ccc(Nc4nc(OC)nc(N(CCO)CCO)n4)cc3S(=O)(=O)O)c(S(=O)(=O)O)c2)nc(N(CCO)CCO)n1 quantity_measured="growth inhibition" readout_number=45.8
structure_string=Cc1ccc2nc(-[n+]3cc4ccccc4cc3C)ccc2c1 quantity_measured="growth inhibition" readout_number=89.3
structure_string=O=C(Nc1c(Cl)cccc1Cl)OCCOc1ccc(Cl)cc1Cl quantity_measured="growth inhibition" readout_number=91.2
structure_string=C/C=c1/[nH]c(=O)/c(=C\c2ccccc2)[nH]c1=O quantity_measured="growth inhibition" readout_number=-5.45
structure_string=COC(=O)c1ccc(OC)cc1 quantity_measured="growth inhibition" readout_number=49.8
structure_string=CCCN=Cc1cnc(C#N)c(N)n1 quantity_measured="growth inhibition" readout_number=4.6
structure_string=COC1=CC(=O)c2c(O)c3c(c(O)c2C1=O)C[C@](C)(O)C[C@@H]3O quantity_measured="growth inhibition" readout_number=85.6
structure_string=COc1ccc(C(=O)C(CN2CCCC2)CN2CCCC2)cc1 quantity_measured="growth inhibition" readout_number=44
structure_string=CC(C)(C)c1ccc(O)c(C2CCCCC2)c1 quantity_measured="growth inhibition" readout_number=99.5

###

experiment: NCI Yeast Anticancer Drug Screen. Data for the mlh1 rad18 strain (AID 175); details: S. cerevisiae mlh1 rad18 strain growth inhibition; at 5.0 µM (retest, dose inferred, filed as 0.5); active compounds read high
The panel holds about 79,000 compounds, 15% with a hit somewhere; the sample as a whole holds those more often.
quantity-measured: growth inhibition (%)

compound="CC([N+](=O)[O-])C1(O)C(=O)c2cccc3cccc1c23 (stereo not given)" readout_number=26
compound=CCOC(=O)/C(=C\c1ccc(-c2ccccc2)cc1)C(C)=O readout_number=-27
compound=CC(=O)O[C@]1(C(C)=O)CC[C@H]2[C@@H]3C[C@H](C)C4=CC(=O)NCC[C@]4(C)[C@H]3CC[C@@]21C readout_number=6
compound="COC1/C=C/OC2(C)Oc3c(C)c(O)c4c(c3C2=O)C(=O)C=C(NC(=O)/C(C)=C\\C=C\\C(C)C(OC=O)C(C)C(O)C(C)C(OC(C)=O)C1C)C4=O (stereo not given)" readout_number=11
compound=O=C(O)c1ccc2c3c(ncnc13)-c1ccccc1C2=O readout_number=28

###

assay: NCI Yeast Anticancer Drug Screen. Data for the bub3 strain (AID 167); conditions: S. cerevisiae bub3 mutant strain, at 5.0 µM (retest, dose inferred, filed as 0.5), active compounds read high
This is part of a sample that, as a whole, favours compounds with a hit. Of some 79,000 tested, about 15% had one in any assay.
quantity-measured: growth inhibition (%)

compound=CCOC(=O)N1CCN(c2cc(C)nc3cc(OC)ccc23)CC1 readout_number=3
compound="COc1cccc(C2c3cc4c(cc3OC(Nc3ccccc3)C2C)OCO4)c1O (stereo not given)" readout_number=-19
compound=CCC(=O)OCC(=O)c1ccc(-c2ccccc2)cc1 readout_number=36
compound=CC/C(=C(\CC)c1ccc(O)c(CN(C)C)c1)c1ccc(OC)cc1 readout_number=-28
compound="Nc1ccc(C2CCC[C@H]2c2ccc(N)cc2)cc1 (stereo not given in full)" readout_number=-3
compound=CCN(CC)C(=S)N/N=C/c1cc([N+](=O)[O-])ccc1O readout_number=16
compound=O=C(O)CCSCc1cc(C(=O)Nc2ccc(/C=C/c3ccc(NC(=O)c4cc(CSCCC(=O)O)c5cccnc5c4O)cc3S(=O)(=O)O)c(S(=O)(=O)O)c2)c(O)c2ncccc12 readout_number=59
compound=O=S(=O)(Cl)c1ccc(Br)cc1 readout_number=84
compound="O=S(=O)(c1ccc(OCC(O)COc2ccc(S(=O)(=O)c3ccc(OCC4CO4)cc3)cc2)cc1)c1ccc(OCC2CO2)cc1 (stereo not given)" readout_number=-4
compound=FC(F)(F)c1[nH]nc(-c2cc3ccccc3o2)c1N=NN1CCOCC1 readout_number=100

###

Assay: NCI Yeast Anticancer Drug Screen. Data for the rad50 strain (AID 155);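 further: 0% = growth of vehicle-only cultures of the same strain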
Conditions: S. cerevisiae rad50 strain growth inhibition; at 5.0 µM (retest, dose inferred, filed as 0.5); active compounds read high
Method: Growth inhibition of yeast strains with defined genetic alterations is measured as a screen for potential anti-cancer activity. Selected strains with alterations in DNA damage repair or cell cycle control were exposed to compounds and growth inhibition was measured relative to vehicle treated controls. The strain used in this assay is rad50
This is part of a sample that, as a whole, favours compounds with a hit. Of some 79,000 tested, about 15% had one in any assay.
Each entry below lists one item and its recorded growth inhibition value.
quantity-measured: growth inhibition (%)

compound=c1ccc(NCCSc2nc3ccccc3s2)cc1 readout_number=6
compound=O=[N+]([O-])c1ccc(NCc2ccccc2)c([N+](=O)[O-])c1 readout_number=-8
compound="CCN(CC)CCOC(=O)C1C(c2ccccc2)C1(c1ccccc1)c1ccccc1 (stereo unspecified)" readout_number=1
compound="CC(C(=O)O)c1cn(Cc2ccccc2)c2ccccc12 (stereo unspecified)" readout_number=-2
compound=O=C(/C=C/C(=O)c1ccc(O)cc1)c1ccccc1 readout_number=-1
compound=CCN(CC)c1ccc(N=Nc2ccc(-c3nc4cccn(C)c-4n3)cc2)cc1 readout_number=8
compound=CC(C)N(CN1C(=O)N/C(=C/c2cccc(/C=C3/NC(=O)N(CN(C(C)C)C(C)C)C3=O)c2)C1=O)C(C)C readout_number=7
compound=COc1cc(/C=C2/SC(=S)NC2=O)cc(OC)c1O readout_number=-18
compound=CCCCCCCN=C(N)c1ccc(C(=O)OCc2ccccc2)cc1 readout_number=1
compound="CCCCCCCCCCCCCCCC[N+](C)(CCO)Cc1cnc[nH]1 (stereo unspecified)" readout_number=97
compound=O=[N+]([O-])c1ccc(N=Nc2ccc(O)cc2O)cc1 readout_number=48

###

Each entry below lists one item and its recorded growth inhibition value.
assay: NCI Yeast Anticancer Drug Screen. Data for the rad50 strain (AID 155);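 further: 0% = growth of vehicle-only cultures of the same strain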; conditions: S. cerevisiae rad50 strain growth inhibition; at 50.0 µM (retest, dose inferred, filed as 5.0); active compounds read high
Compounds without any hit were thinned out: in the full panel of roughly 79,000, 15% have a hit. Calls of active or inactive are those of the source. Rule as the data show it: active = growth inhibition above about 70%; inactive = the rest.
quantity-measured: growth inhibition

compound=Cc1cc(Cl)ccc1OCC(=O)Oc1c(Cl)c(Cl)c(Cl)c(Cl)c1Cl result="36% (inactive)"
compound=N#CSc1cc(SC#N)c2ccccc2c1N result="-3% (inactive)"
compound=O=[N+]([O-])c1cc2cccnc2c2ncccc12 result="-15% (inactive)"
compound=CC(C)Cc1ncc(CC(C)C)n(O)c1=O result="97% (active)"
compound="COc1cc(C(c2cc3c(cc2O)OCO3)N2CCOCC2)cc(OC)c1OC (stereo not given)" result="23% (inactive)"
compound=O=C(O)/C(Cl)=C(\Cl)C(=O)Nc1cccc(C(F)(F)F)c1 result="99% (active)"
compound=CN(C)CCC(/C=C/c1ccccc1)=N\Nc1ccc(Cl)cc1Cl result="87% (active)"
compound=Cc1cc2cc3c(c(C(=O)O)c2o1)C(=O)c1ccc2ccccc2c1C3 result="99% (active)"
compound=C=C/C=C/CC=C result="38% (inactive)"
compound=CN1CCN(CCOC(=O)N2c3ccccc3Sc3ccccc32)CC1 result="1% (inactive)"
compound=CCCCCCCN=C(N)c1ccc(C(=O)OCc2ccccc2)cc1 result="86% (active)"
compound=CS(=O)(=O)OCCCN(CCCOS(C)(=O)=O)c1ccc(C=Nc2ccc(-c3csc(COc4ccc(Br)cc4Br)n3)cc2)cc1 result="83% (active)"
compound="O=C1OC(CCCl)(c2ccccc2)CC1CN1CCOCC1 (stereo not given)" result="81% (active)"
compound=C(C#Cc1ccccc1)#CCc1ccccc1 result="17% (inactive)"
compound=CCCCC(=O)N/N=C/c1ccc([N+](=O)[O-])s1 result="93% (active)"
compound=Oc1ccc(-c2ccccc2)cc1Br result="99% (active)"
compound=CCOc1c(Br)cc(Br)cc1/C=N/NS(=O)(=O)c1ccc(C)cc1 result="90% (active)"
compound=Cc1ccc(/C=C2\CCCc3ccccc3C2=O)cc1 result="7% (inactive)"
compound=O=[N+]([O-])/C(C(Cl)=C(Cl)Cl)=C(/Nc1ccccc1)Sc1ccccc1 result="99% (active)"
compound=COc1ccc(/C=N/Nc2ccccc2)cc1 result="97% (active)"
compound=Cn1c(-c2ccc(/C=N/NC(N)=NCCCCCCN=C(N)N/N=C/c3ccc(-c4c[n+]5ccccc5n4C)cc3)cc2)c[n+]2ccccc12 result="98% (active)"
compound=CC(=O)c1c(C)n(C)c2c1nnc1ccccc12 result="81% (active)"
compound="O=C1Sc2sc(=S)sc2SC1c1ccccc1 (stereo not given)" result="87% (active)"
compound=CCCN1C(=O)c2ccccc2C1=O result="2% (inactive)"
compound=O=[N+]([O-])c1ccc(N/N=C/COCCO)c([N+](=O)[O-])c1 result="20% (inactive)"
